Target entity: T1, EsCas13d, nuclease-dead (Eubacterium siraeum, UniProt B0MS50, R295A;H300A;R849A;H854A)
T1 sequence: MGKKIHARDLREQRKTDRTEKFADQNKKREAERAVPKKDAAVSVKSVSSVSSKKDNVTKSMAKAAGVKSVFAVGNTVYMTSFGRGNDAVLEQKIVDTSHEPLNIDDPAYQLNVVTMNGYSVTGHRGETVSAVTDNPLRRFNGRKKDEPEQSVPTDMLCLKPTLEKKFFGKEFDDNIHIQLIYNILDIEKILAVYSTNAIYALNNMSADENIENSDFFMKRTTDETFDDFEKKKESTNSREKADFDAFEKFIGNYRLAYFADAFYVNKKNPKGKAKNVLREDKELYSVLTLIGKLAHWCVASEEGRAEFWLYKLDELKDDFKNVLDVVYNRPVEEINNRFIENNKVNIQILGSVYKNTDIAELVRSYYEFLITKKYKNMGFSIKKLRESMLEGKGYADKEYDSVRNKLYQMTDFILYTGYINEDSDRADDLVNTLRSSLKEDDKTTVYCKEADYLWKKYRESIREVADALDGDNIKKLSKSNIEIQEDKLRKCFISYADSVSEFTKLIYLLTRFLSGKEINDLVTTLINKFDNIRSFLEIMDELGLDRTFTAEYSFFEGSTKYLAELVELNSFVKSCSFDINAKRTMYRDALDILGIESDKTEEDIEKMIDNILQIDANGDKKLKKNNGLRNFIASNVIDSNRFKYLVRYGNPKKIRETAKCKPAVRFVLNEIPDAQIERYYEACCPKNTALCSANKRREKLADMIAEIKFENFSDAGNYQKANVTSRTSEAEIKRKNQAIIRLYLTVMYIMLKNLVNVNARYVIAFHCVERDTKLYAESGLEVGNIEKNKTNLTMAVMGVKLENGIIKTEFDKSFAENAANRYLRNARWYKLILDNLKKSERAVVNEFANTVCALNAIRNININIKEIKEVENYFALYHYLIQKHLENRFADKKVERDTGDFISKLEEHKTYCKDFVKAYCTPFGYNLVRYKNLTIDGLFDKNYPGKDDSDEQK
Assay: crRNA (strand 1, pre-loaded); Mg2+; 40 mM Tris-HCl pH 7.5, 150 mM NaCl, 6 mM MgCl2, 1 mM DTT, 0.1% Tween-20, 0.2 mg/ml BSA; 25 C; 10 min per concentration, then washed
Recorded conditions: tags: His6-TwinStrep-SUMO cleaved; N-terminal SNAP kept (SNAP-Surface 488); label: 3' end held by stalled T7 RNA polymerase
Readout name: pKd
Bear in mind: pKd is minus log10 of a mol/L concentration; give just that figure.

-- ask Output measured pKd for this item: target 1 G5U,G15A (mixed) RNA 1: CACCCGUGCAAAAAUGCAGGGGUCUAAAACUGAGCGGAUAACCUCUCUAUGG RNA 2: GGGAAUGGAUCCACAUCUACGAAUUCGUACCAUAGAAAGGUUAUCCUCUCACCGAGAUCGGAAGAGCACACGU
-- reply 7.78

-- ask Output measured pKd for this item: target 2 MT 5'PFS UAU 3'PFS UAC (mixed) RNA 1: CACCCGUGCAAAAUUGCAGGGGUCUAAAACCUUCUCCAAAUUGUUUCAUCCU RNA 2: GGGAAUGGAUCCACAUCUACGAAUUCUAUAGGAUGAAACAAUUUGGAGAAGUACAGAUCGGAAGAGCACACGU
-- reply 7.59

-- ask Output measured pKd for this item: target 1 insG 3' of 3 (mixed) RNA 1: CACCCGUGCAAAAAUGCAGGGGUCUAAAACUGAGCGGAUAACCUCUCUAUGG RNA 2: GGGAAUGGAUCCACAUCUACGAAUUCGUACCAUAGAGAGGUUAUCCGCUGCACCGAGAUCGGAAGAGCACACGU
-- reply 8.14

-- ask Output measured pKd for this item: target 2 MT 5'PFS UCG 3'PFS ACG (mixed) RNA 1: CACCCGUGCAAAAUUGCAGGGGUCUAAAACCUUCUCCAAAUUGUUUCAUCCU RNA 2: GGGAAUGGAUCCACAUCUACGAAUUCUCGAGGAUGAAACAAUUUGGAGAAGACGAGAUCGGAAGAGCACACGU
-- reply 7.35

-- ask Output measured pKd for this item: target 1 insC 3' of 12,insU 3' of 9 (mixed) RNA 1: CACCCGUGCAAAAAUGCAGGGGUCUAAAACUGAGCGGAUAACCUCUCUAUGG RNA 2: GGGAAUGGAUCCACAUCUACGAAUUCGUACCAUAGAGAGGCUUAUUCCGCUCACCGAGAUCGGAAGAGCACACGU
-- reply 7.85

-- ask Output measured pKd for this item: target 1 insC 3' of 8,insC 3' of 8 (mixed) RNA 1: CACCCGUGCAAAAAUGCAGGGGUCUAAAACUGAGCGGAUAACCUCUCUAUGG RNA 2: GGGAAUGGAUCCACAUCUACGAAUUCGUACCAUAGAGAGGUUAUCCCCGCUCACCGAGAUCGGAAGAGCACACGU
-- reply 7.84

-- ask Output measured pKd for this item: target 1 MT 5'PFS GGC 3'PFS CUA (mixed) RNA 1: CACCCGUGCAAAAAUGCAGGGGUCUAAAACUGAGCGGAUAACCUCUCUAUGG RNA 2: GGGAAUGGAUCCACAUCUACGAAUUCGGCCCAUAGAGAGGUUAUCCGCUCACUAAGAUCGGAAGAGCACACGU
-- reply 7.82

-- ask Output measured pKd for this item: target 1 MT 5'PFS GGU 3'PFS UCA (mixed) RNA 1: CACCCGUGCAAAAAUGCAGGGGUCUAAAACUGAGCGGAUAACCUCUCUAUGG RNA 2: GGGAAUGGAUCCACAUCUACGAAUUCGGUCCAUAGAGAGGUUAUCCGCUCAUCAAGAUCGGAAGAGCACACGU
-- reply 7.36

-- ask Output measured pKd for this item: target 1 MT 5'PFS AAG 3'PFS AUA (mixed) RNA 1: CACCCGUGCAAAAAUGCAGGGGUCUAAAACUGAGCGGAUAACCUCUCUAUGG RNA 2: GGGAAUGGAUCCACAUCUACGAAUUCAAGCCAUAGAGAGGUUAUCCGCUCAAUAAGAUCGGAAGAGCACACGU
-- reply 7.58

-- ask Output measured pKd for this item: target 1 U3A,U11A (mixed) RNA 1: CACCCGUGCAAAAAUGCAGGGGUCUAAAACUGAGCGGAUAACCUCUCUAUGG RNA 2: GGGAAUGGAUCCACAUCUACGAAUUCGUACCAUAGAGAGGAUAUCCGCACACCGAGAUCGGAAGAGCACACGU
-- reply 7.90

-- ask Output measured pKd for this item: target 3 U2G,A12C (mixed) RNA 1: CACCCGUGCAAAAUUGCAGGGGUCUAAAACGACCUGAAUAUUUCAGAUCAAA RNA 2: GGGAAUGGAUCCACAUCUACGAAUUCGUUUUUGAUCUGACAUAUUCAGGGCUGCAGAUCGGAAGAGCACACGU
-- reply 7.63

-- ask Output measured pKd for this item: target 1 insC 3' of 13,insU 3' of 6 (mixed) RNA 1: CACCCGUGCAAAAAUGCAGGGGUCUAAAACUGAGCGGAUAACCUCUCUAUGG RNA 2: GGGAAUGGAUCCACAUCUACGAAUUCGUACCAUAGAGAGCGUUAUCCUGCUCACCGAGAUCGGAAGAGCACACGU
-- reply 7.96

-- ask Output measured pKd for this item: target 3 insG 3' of 2,insU 3' of 1 (mixed) RNA 1: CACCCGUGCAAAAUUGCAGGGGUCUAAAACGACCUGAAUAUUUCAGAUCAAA RNA 2: GGGAAUGGAUCCACAUCUACGAAUUCGUUUUUGAUCUGAAAUAUUCAGGUGCUUGCAGAUCGGAAGAGCACACGU
-- reply 7.17
